I'd appreciate it if you could supply growth inhibition values for the items below.
Assay procedure: NCI Yeast Anticancer Drug Screen. Data for the mec2-1 strain (AID 157)
Experimental parameters: S. cerevisiae mec2-1 strain, at 50.0 µM (retest, dose inferred, filed as 5.0), hits give high values
The panel holds about 79,000 compounds, 15% with a hit somewhere; the sample as a whole holds those more often.
Give bare numbers, in %.

Consider the following illustrative entries.
# Smiles structure, growth inhibition / %
rows = [
    ("Cc1c2c(c(C)c3c[n+](C)ccc13)Oc1ccccc1O2", 19),
    ("Cc1ccc(NC(=S)C#N)cc1Cl", 44),
    ("COc1cccc(NC(=O)c2c(SC)c(C#N)c(=O)n(N)c2N)c1", 99),
    ("Cc1ccc2[nH]cc(CC(=O)O)c2c1", 100),
    ("COC(=O)c1ccc(Cl)c(NN)c1", 59),
    ("COc1cc(/C=C/C(=O)CC(=O)/C=C/c2ccc(O)c(OC)c2)ccc1O", 93),
    ("c1ccc(-c2nc(N=C3N=c4ccccc4=N3)[nH]c2-c2ccccn2)nc1", 97),
    ("Clc1ccc(Cc2nc3ccccc3s2)cc1", 99),
]

Lab note: each compound below needs its growth inhibition filled in.
1. Oc1ccc(Cc2cccc(Cl)c2)c(O)c1
2. Cc1cc(I)nc2ccccc12
3. CC(C)c1cc([N+](=O)[O-])c(O)c([N+](=O)[O-])c1

Result string:
96
1
75

Take each entry in turn and give its growth inhibition.
1. CC1(O)CCCCCC1
2. CCc1cnc2ccccc2c1/C=C/c1ccc(N(C)C)cc1

Result string:
[58, 96]
